The reported numbers originate from paper PMC12212125.

B1: Arabidopsis thaliana cryptochrome 2 (CRY2, UniProt Q96524), residues 1-535 fused after the Gal4 DNA-binding domain (Gal4BD-CRY2(535)); mutagenized window 321-412, Q96524 (parent)
chain: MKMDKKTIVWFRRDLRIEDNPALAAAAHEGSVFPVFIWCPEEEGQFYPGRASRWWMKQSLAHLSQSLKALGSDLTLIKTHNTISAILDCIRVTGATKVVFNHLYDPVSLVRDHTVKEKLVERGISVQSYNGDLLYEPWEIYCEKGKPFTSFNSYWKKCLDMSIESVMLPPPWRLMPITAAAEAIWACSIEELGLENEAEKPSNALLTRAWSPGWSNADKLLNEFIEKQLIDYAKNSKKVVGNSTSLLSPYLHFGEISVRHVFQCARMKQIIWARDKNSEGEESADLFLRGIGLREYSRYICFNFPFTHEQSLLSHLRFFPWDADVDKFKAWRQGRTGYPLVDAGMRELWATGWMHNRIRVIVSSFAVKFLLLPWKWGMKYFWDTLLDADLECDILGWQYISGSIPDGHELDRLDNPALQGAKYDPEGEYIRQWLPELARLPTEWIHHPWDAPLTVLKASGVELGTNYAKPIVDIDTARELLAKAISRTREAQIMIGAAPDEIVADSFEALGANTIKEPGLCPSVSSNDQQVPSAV

variants of: B1; test: yeast two-hybrid growth selection (MaV203; Gal4BD-CRY2(1-535) library x Gal4AD-CIB1; URA3 reporter on SC -Trp/-Leu/-Ura) in the dark, deep sequencing before and after selection, Enrich2 scoring; three independent screens (one at 48 h, two …); conditions: with CIB1 (CRYPTOCHROME-INTERACTING BASIC-HELIX-LOOP-HELIX 1), dark (no blue light), screens 1, 3 and 4, Svar > 0 = enriched under dark selection for CRY2-CIB1 two-hybrid growth (URA3 reporter), < 0 = depleted, relative to wild type (whose scores are 0). 'The Enrich2 software calculates, parent: 0, not an affinity, scale: Enrich2 score, numbering: uniprot, sequence starts at 1
quantity_name: enrichment

See these solved cases before continuing.
| variant_name | enrichment |
| --- | --- |
| N356D | 2.44 |
| M378K | 2.66 |
| H408P | 1.5 |
| I394Y | 1.45 |
| I394L | 2.29 |

Respectfully, I request enrichment for each entry included below.
1. F381Y
2. L386W
3. L370R
4. K329E
5. Y338H
6. D387V

0.399
-0.68
0.499
-0.264
-0.584
-0.792
